Species: Rattus norvegicus
Experiment: DrugMatrix - Regimen: Daily Repeat
Assay type: toxicity, organism-based, Sprague-Dawley
Design: regimen Daily Repeat, gender Male, age 6-8 weeks
Settings: in vivo, iv, 0 mg/kg, 120 h, tissue Blood, dose level Control, time 5 day, vehicle 100 % SALINE
Recorded MEAN CORPUSCULAR HEMOGLOBIN by entry
The answer is to be given in pg; state only the numeric part.

Examples with their reported MEAN CORPUSCULAR HEMOGLOBIN follow.
NCC[C@H](O)C(=O)N[C@@H]1C[C@H](N)[C@@H](O[C@H]2O[C@H](CN)[C@@H](O)[C@H](O)[C@H]2O)[C@H](O)[C@H]1O[C@H]1O[C@H](CO)[C@@H](O)[C@H](N)[C@H]1O; 24.38
CC[C@@]1(O)C(=O)OCc2c1cc1n(c2=O)Cc2cc3ccccc3nc2-1; 24.32
CN(N=O)C(=O)N[C@@H](C=O)[C@@H](O)[C@H](O)[C@H](O)CO; 23.87

Consider the record given below.
Query string: Answer with the recorded MEAN CORPUSCULAR HEMOGLOBIN of CC1(C)S[C@@H]2[C@H](NC(=O)[C@H](NC(=O)N3CCNC3=O)c3ccccc3)C(=O)N2[C@H]1C(=O)O only.
Result string: 24.52
